test: clinical
recorded.conditions: human, in vivo, po, F
measured.quantity: bioavailability

>>> val("CC(C)(C)NC(=O)C1CC[C@H]2[C@]3(C)CC[C@H]4NC(=O)C=C[C@]4(C)[C@H]3CC[C@]12C (stereo partly specified)")
"79%"
>>> val("O=C(O)CCc1nc(-c2ccccc2)c(-c2ccccc2)o1 [OXAPROZIN]")
"≥ 80%"
>>> val("COc1cc(Cc2cnc(N)nc2N)cc(OC)c1OC [TRIMETHOPRIM]")
"> 80%"
>>> val("NCCc1ccc(O)c(O)c1 [DOPAMINE]")
"< 20%"
>>> val("CO/C(O)=C1\\C(C)=NC(C)=C(C(=O)OC(C)C)C1c1cccc2nonc12 (stereo unspecified)")
"≤ 20%"
>>> val("CCc1cccc2c3c([nH]c12)C(CC)(CC(=O)O)OCC3 (stereo unspecified) [ETODOLAC]")
"≥ 80%"
>>> val("CC(C)NCC(O)COc1ccc(CCOCC2CC2)cc1 (stereo unspecified) [BETAXOLOL]")
"> 80%"
>>> val("CCCCNC(=O)NS(=O)(=O)c1ccc(C)cc1 [TOLBUTAMIDE]")
"≥ 80%"
>>> val("CC(C)(C)NCC(O)COc1cccc2c1CCC(=O)N2 (stereo unspecified) [CARTEOLOL]")
"≥ 80%"
>>> val("Nc1nc(=O)[nH]cc1F [FLUCYTOSINE]")
"> 80%"
>>> val("CNC[C@H](O)c1cccc(O)c1 [PHENYLEPHRINE]")
"49%"
>>> val("Nc1cc(-c2ccncc2)c[nH]c1=O [INAMRINONE]")
"≥ 80%"
>>> val("Cc1ccc(C)c(OCCCC(C)(C)C(=O)O)c1 [GEMFIBROZIL]")
"≥ 80%"
>>> val("COc1cc2nc(N3CCN(C(=O)C4CCCO4)CC3)nc(N)c2cc1OC (stereo unspecified) [TERAZOSIN]")
"> 80%"
>>> val("O=[N+]([O-])C1O[C@H]2[C@H](OC[C@H]2O)[C@H]1O (stereo partly specified)")
"≥ 80%"
>>> val("NNC(=O)c1ccncc1 [ISONIAZID]")
"> 80%"
>>> val("COc1ccc(Cl)cc1C(=O)NCCc1ccc(S(=O)(=O)NC(=O)NC2CCCCC2)cc1 [GLYBURIDE]")
"≥ 80%"
>>> val("CNC(=C[N+](=O)[O-])NCCSCc1csc(CN(C)C)n1 [NIZATIDINE]")
"> 80%"
>>> val("O=[N+]([O-])C1O[C@H]2[C@H](OC[C@@H]2O)[C@@H]1O (stereo partly specified)")
"≥ 80%"
>>> val("Cc1cccc(C)c1NC(=O)C(C)N (stereo unspecified) [TOCAINIDE]")
"≥ 80%"
>>> val("O=C(c1ccccc1)c1ccc2n1CCC2C(=O)O (stereo unspecified) [KETOROLAC]")
"≥ 80%"
